IC50 values, listed per item
Tested on: SW 480
assay overview: Growth inhibition test (MTT), cytotoxic action on tumour cell lines
Type: cell-based, human
settings: SW480; MTT after day 6; read-out: IC50 values of the cytotoxic action on tumour cell lines, SW480
*1 amine or outer side, *2 acyl side, *3 side chain or, on linkers, in order; H or OH if unused. Where a SMILES comes first, the peptide text is derived from it. [ ]: non-standard residue; d: D form. The star is where a group is joined. Camptothecin(20R,20-O) = CC[C@]1(O*)C(=O)OCc2c1cc1n(c2=O)Cc2cc3ccccc3nc2-1; X3 = O=C(Nc1cccc(-c2ccc(S(=O)(=O)*)cc2)c1)Nc1nc2ccccc2[nH]1; X4 = O=C(O)CC(N[*:1])c1cccc(NC(=S)[*:2])c1

compound | IC50
CCCNC(=O)Nc1cccc(S(=O)(=O)Nc2cccc(C(CC(=O)O)NC(=O)Nc3ccc(NC(=S)NCC(=O)N4CCC[C@@H]4C(=O)N[C@@H](CC(C)C)C(=O)NCC(=O)N[C@H](CC(C)C)C(=O)N[C@H](Cc4c[nH]cn4)C(=O)N[C@@H](C(=O)O[C@@]4(CC)C(=O)OCc5c4cc4n(c5=O)Cc5cc6ccccc6nc5-4)C(C)C)cc3)c2)c1 (single isomer, unassigned) | 100 nM
CCCNC(=O)Nc1cccc(S(=O)(=O)Nc2cccc(C(CC(=O)O)NC(=O)Nc3ccc(NC(=S)N4CCC[C@@H]4C(=O)N[C@@H](CC(C)C)C(=O)NCC(=O)N[C@H](Cc4c[nH]cn4)C(=O)N[C@@H](C(=O)O[C@@]4(CC)C(=O)OCc5c4cc4n(c5=O)Cc5cc6ccccc6nc5-4)C(C)C)cc3)c2)c1 (single isomer, unassigned) | 90 nM
CC[C@]1(OC(=O)[C@H](NC(=O)[C@@H](Cc2c[nH]cn2)NC(=O)[C@@H](CC(C)C)NC(=O)CNC(=O)[C@H](CC(C)C)NC(=O)[C@H]2CCCN2C(=S)Nc2cccc(C(CC(=O)O)NS(=O)(=O)c3ccc(-c4cccc(NC(=O)Nc5nc6ccccc6[nH]5)c4)cc3)c2)C(C)C)C(=O)OCc2c1cc1n(c2=O)Cc2cc3ccccc3nc2-1 (stereo partly drawn) [Example 4] (X3-[X4][dP]LG[dL][dH][dV]-{Camptothecin(20R,20-O)}) | 70 nM
